- Target Of Assay: T1, human KLRB1 protein extracellular domain (ECD) (human, UniProt Q12918 67-225)
- T1 construct: range 67-225; The ELISA and SPR text says only 'human KLRB1 ECD'; also called human KLRB1 ECD; CD161
- T1 sequence (looked up): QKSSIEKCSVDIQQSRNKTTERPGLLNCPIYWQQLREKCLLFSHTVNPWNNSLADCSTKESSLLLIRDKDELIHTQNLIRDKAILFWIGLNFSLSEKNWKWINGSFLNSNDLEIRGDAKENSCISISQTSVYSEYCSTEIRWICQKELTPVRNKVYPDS
- Assay Details: SPR, human KLRB1 ECD; format not stated
- Method: The chimeric antibody 10A3D6-hIgGlk (a mouse/human chimeric antibody with 10A3D6 variable regions and human IgG1-kappa constant regions), chimeric mutated variants (10A3D6C109S, 10A3D6C109F, and 10A3D6C109V), and humanized variants of 10A3D6 created by CDR grafting (Almagro et al. 2008) were assayed for binding against human KLRB1 extracellular domain (ECD) via surface plasma resonance (SPR).

>  <Binder>
10A3D6hum1.2 (antibody, V domains shown, Fluorescently labelled in the competition assay; dye and attachment site not stated., Humanized antibody; also called 103AD6hum1.2; copies: 2 + 2) VH: QVQLVQSGAEVKKPGASVKVSCKASGYSFTGYTMNWVRQAPGQGLEWMGLINPNTGGTYYNQKFKDRVTMTRDTSISTAYMELSRLRSDDTAVYYCARLGDNYRGYFDSWGQGTTVTVSS VL: DIQLTQSPSFLSASVGDRVTITCKASQDVGTAVVWYQQKPGKAPKLLIDWASIRHTGVPSRFSGSGSGTEFTLTISSLQPEDFADYFCQQYSTYLYTFGGGTKLEIKR

>  <kon [M⁻¹ s⁻¹]>
1.24e+06

$$$$
>  <Binder>
10A3D6C109F-chimeric (antibody, human IgG1, V domains shown, Chimeric mutated variant; the name hIgG1k indicates human IgG1 kappa constant regions; also called 10A3D6C109FhIgG1k) VH: EVQLQQSGPELVKPGASMKISCKASGYSFTGYTMNWVKQSHGKNLEWIGLINPNTGGTYYNQKFKDKATLTVDKSSSTAYMELLSLTSEDSAVYYCARLGDNYRGYFDFWGQGTTLTVSS VL: DIVMTQSHKFMSTSVGDRVNITCKASQDVGTAVVWYQQTPGQSPKVLIDWASIRHTGVPDRFTGSGSGTDFTLTISSVQSEDLADYFCQQYSTYLYTFGGGTKLEIK

>  <kon [M⁻¹ s⁻¹]>
5.36e+06

$$$$
>  <Binder>
10A3D6C109S-chimeric (antibody, human IgG1, V domains shown, Chimeric mutated variant; the name hIgG1k indicates human IgG1 kappa constant regions; also called 10A3D6C109ShIgG1k) VH: EVQLQQSGPELVKPGASMKISCKASGYSFTGYTMNWVKQSHGKNLEWIGLINPNTGGTYYNQKFKDKATLTVDKSSSTAYMELLSLTSEDSAVYYCARLGDNYRGYFDSWGQGTTLTVSS VL: DIVMTQSHKFMSTSVGDRVNITCKASQDVGTAVVWYQQTPGQSPKVLIDWASIRHTGVPDRFTGSGSGTDFTLTISSVQSEDLADYFCQQYSTYLYTFGGGTKLEIK

>  <kon [M⁻¹ s⁻¹]>
5.93e+06

$$$$
>  <Binder>
10A3D6hum2.2 (antibody, human IgG1, kappa, V domains shown, copies: 2 + 2) VH: QVQLVQSGAEVKKPGASVKVSCKASGYSFTGYTMNWVRQAPGQNLEWIGLINPNTGGTYYNQKFKDRVTLTVDTSISTAYMELSRLRSDDTAVYYCARLGDNYRGYFDSWGQGTTVTVSS VL: DIQLTQSPSFLSASVGDRVTITCKASQDVGTAVVWYQQKPGKAPKLLIDWASIRHTGVPSRFSGSGSGTEFTLTISSLQPEDFADYFCQQYSTYLYTFGGGTKLEIKR

>  <kon [M⁻¹ s⁻¹]>
1.07e+06

$$$$
>  <Binder>
10A3D6C109Chum3.5 (antibody, V domains shown, Humanized variant of 10A3D6 made by CDR grafting) VH: QVQLVQSGAEVKKPGASVKVSCKASGYSFTGYTMNWVRQAHGQNLEWIGLINPNTGGTYYNQKFKDRVTLTVDTSISTAYMELSRLRSDDTAVYYCARLGDNYRGYFDCWGQGTTVTVSS VL: EIVMTQSPATLSVSPGERATLSCKASQDVGTAVVWYQQKPGQAPRLLIDWASIRHTGIPARFSGSGSGTEFTLTISSLQSEDFAVYYCQQYSTYLYTFGGGTKVEIK

>  <kon [M⁻¹ s⁻¹]>
792000

$$$$
